Recorded values, source patent US4387106A.

- STUDY_TARGET: fatty acyl CoA:cholesterol acyl transferase (ACAT) (Rattus norvegicus, UniProt O70536)
- Construct: The supernatant, containing the microsomal fraction, served as the source of the cholesterol-esterifying enzyme; from tissue; host or cells: rat adrenals, homogenate, 1000 x g supernatant containing the microsomal fraction
- Sequence (O70536 1-545): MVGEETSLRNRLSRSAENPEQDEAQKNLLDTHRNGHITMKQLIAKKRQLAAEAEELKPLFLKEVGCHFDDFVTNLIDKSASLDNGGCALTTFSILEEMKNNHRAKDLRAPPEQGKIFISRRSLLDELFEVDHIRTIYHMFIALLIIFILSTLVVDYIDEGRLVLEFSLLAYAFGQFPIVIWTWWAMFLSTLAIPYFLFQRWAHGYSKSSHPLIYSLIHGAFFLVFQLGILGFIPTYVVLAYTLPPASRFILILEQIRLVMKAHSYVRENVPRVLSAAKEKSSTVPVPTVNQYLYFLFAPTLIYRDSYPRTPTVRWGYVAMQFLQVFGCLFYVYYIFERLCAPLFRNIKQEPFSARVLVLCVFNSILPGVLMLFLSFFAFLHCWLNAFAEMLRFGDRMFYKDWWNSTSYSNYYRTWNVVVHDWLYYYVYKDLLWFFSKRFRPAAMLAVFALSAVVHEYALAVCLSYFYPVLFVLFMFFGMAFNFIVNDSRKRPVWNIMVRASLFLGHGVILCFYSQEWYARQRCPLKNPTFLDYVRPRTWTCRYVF
- PROTOCOL_DETAILS: In vitro inhibition of fatty acyl CoA:cholesterol acyl transferase (ACAT), rat adrenal supernatant
- Type: biochemical
- MEASUREMENT_CONDITIONS: final concentration 5.2 μg./ml., pH 7.4, 37° C., oleoyl CoA (14C)
QUANTITY_KIND: inhibition at 5.2 µg/mL (%)

COMPOUND	STUDY_TARGET	inhibition at 5.2 µg/mL / %
O=C(Nc1c(Cl)cccc1Cl)N(Cc1ccccc1)Cc1ccccc1 [1,1-Dibenzyl-3-(2,6-dichlorophenyl)urea]	fatty acyl CoA:cholesterol acyl transferase (ACAT) (Rattus norvegicus, UniProt O70536)	88.6
O=C(Nc1cccc(Cl)c1Cl)N(Cc1ccccc1)Cc1ccccc1 [1,1-Dibenzyl-3-(2,3-dichlorophenyl)urea]	fatty acyl CoA:cholesterol acyl transferase (ACAT) (Rattus norvegicus, UniProt O70536)	79.7
CCOC(=O)c1ccc(NC(=O)N(Cc2ccccc2)Cc2ccccc2)cc1 [1,1-Dibenzyl-3-(4-carboethoxyphenyl)urea]	fatty acyl CoA:cholesterol acyl transferase (ACAT) (Rattus norvegicus, UniProt O70536)	94.9
COc1ccccc1NC(=O)N(Cc1ccccc1)Cc1ccccc1 [1,1-Dibenzyl-3-(2-methoxyphenyl)urea]	fatty acyl CoA:cholesterol acyl transferase (ACAT) (Rattus norvegicus, UniProt O70536)	91
Cc1ccc(Cl)cc1NC(=O)N(Cc1ccccc1)Cc1ccccc1	fatty acyl CoA:cholesterol acyl transferase (ACAT) (Rattus norvegicus, UniProt O70536)	71.3
Cc1cc(C)c(NC(=O)N(Cc2ccccc2)Cc2ccccc2)cc1C	fatty acyl CoA:cholesterol acyl transferase (ACAT) (Rattus norvegicus, UniProt O70536)	69.1
Cc1ccc(NC(=O)N(Cc2ccccc2)Cc2ccccc2)c(C)c1 [1,1-Dibenzyl-3-(2,4-dimethylphenyl)urea]	fatty acyl CoA:cholesterol acyl transferase (ACAT) (Rattus norvegicus, UniProt O70536)	89.9
Cc1cccc(NC(=O)N(Cc2ccccc2)Cc2ccccc2)c1C [1,1-Dibenzyl-3-(2,3-dimethylphenyl)urea]	fatty acyl CoA:cholesterol acyl transferase (ACAT) (Rattus norvegicus, UniProt O70536)	88.1
